# System: Saccharomyces cerevisiae BY4741 SeMeCo community
# ASSAY_SUMMARY: z-score of prototroph abundance vs DMSO median; higher = larger share of this subpopulation than in DMSO controls
# TEST_SETTINGS: 10 µM; 24 h; SM minimal medium; subpopulation (auxotrophy): Prototroph
Where a name gives a salt, the structure may show the parent alone.
Each record here notes measured z-score of prototroph abundance.

COMPOUND | z-score of prototroph abundance
N#Cc1nn(-c2c(Cl)cc(C(F)(F)F)cc2Cl)c(N)c1[S+]([O-])C(F)(F)F (stereo unspecified) | 0.88
COc1ccc(C(CN(C)C)C2(O)CCCCC2)cc1 (stereo unspecified) [Venlafaxine HCl] | 0
C[C@@H]1CC[C@H]2[C@@H](C)C(=O)O[C@@H]3O[C@@]4(C)CC[C@@H]1[C@]32OO4 | 1.7
CN(C)[C@@H]1C(=O)C(C(N)=O)=C(O)[C@@]2(O)C(=O)C3=C(O)c4c(O)cccc4[C@@](C)(O)[C@H]3C[C@@H]12 [Tetracycline HCl] | -0.24
CCN(C)C(=O)Oc1cccc([C@H](C)N(C)C)c1 [Rivastigmine Tartrate] | 0.28
COC(=O)C1=CCCN(C)C1 | -0.55
CC(C)(O)C(Cl)(Cl)Cl | -0.27
O=c1[nH]c2ccccc2n1CCCN1CCC(n2c(=O)[nH]c3cc(Cl)ccc32)CC1 | -0.65
Nc1ccncc1 | -0.05
CN1[C@@H]2CC[C@H]1C[C@@H](OC(=O)[C@H](CO)c1ccccc1)C2 | 0.38
CN(C)[C@@H]1C(=O)C(C(N)=O)=C(O)[C@@]2(O)C(=O)C3=C(O)c4c(O)cccc4[C@@](C)(O)[C@H]3[C@H](O)[C@@H]12 [Oxytetracycline Dihydrate] | 0.77

The reported measurements were obtained from the supplement of paper PMC8975748.
